FYI, the data here is from patent US12077566.

// koff lookup, one value per entry
# testedTarget: T1, EGFR extracellular domain (with an amino acid sequence of 25-645) (human, UniProt P00533 25-645)
# T1 construct: range 25-645; Coupled on a CM5 chip; also called epidermal growth factor receptor extracellular domain; ligand (on the chip)
# procedureText: SPR, Biacore T200; EGFR extracellular domain on CM5 chip, rLZ-8 protein as analyte
Number first, unit second: that is the form wanted.

INSERT INTO assay_data (binder, reportedresult) VALUES
  ('rLZ-8 (L17K/D70K) (other, Surface potential mutant of rLZ-8) MSDTALIFRLAWDVKKKSFDYTPNWGRGNPNNFIDTVTFPKVLTDKAYTYRVAVSGRNLGVKPSYAVESKGSQKVNFLEYNSGYGIADTNTIQVFVVDPDTNNDFIIAQWN', '0.000329 s⁻¹'),
  ('rLZ-8 (D70K) (other, Surface potential mutant of rLZ-8) MSDTALIFRLAWDVKKLSFDYTPNWGRGNPNNFIDTVTFPKVLTDKAYTYRVAVSGRNLGVKPSYAVESKGSQKVNFLEYNSGYGIADTNTIQVFVVDPDTNNDFIIAQWN', '0.000457 s⁻¹');

Okay, now this binder:
Challenge: Request the reported koff associated with rLZ-8 (K16A/S18A/K41A/D45A) (other, Alanine mutant of rLZ-8, made by the same fermentation and purification as rLZ-8) MSDTALIFRLAWDVKALAFDYTPNWGRGNPNNFIDTVTFPAVLTAKAYTYRVAVSGRNLGVKPSYAVESDGSQKVNFLEYNSGYGIADTNTIQVFVVDPDTNNDFIIAQWN
Response given: 0.00423 s⁻¹
